The measured values listed here are drawn from the DeepSol protein solubility set.

EXPERIMENT DESCRIPTION: soluble on expression in E. coli; label from the status in PepcDB or PDB records

SEQUENCE STRING | soluble on expression in E. coli
MGSDKIHHHHHHMRLYTRTGDKGKTSVIGGRLAKDDTRVVAYGTTDELNSFVGSAITQLDENTFADIRGELFKIQHELFDCGGDLAMLKVKEDRPYKAKQEIVDFLEQRIDAYIKEAPELERFILPGGSEAAASLHVCRTIARRAERYVVRLQQEGEINPIVLKYLNRLSDYFFAVARVVNSRLQVPDVEYERSAIVFREGKRKEDKK | soluble
GMAEEKKKKLSIIVFSGTIDKLMPVGILTSGAAASGYEVNLFFTFWGLQAITKRSLNSQQPPQIDKNYEQMGPIMMQKMQEMKYPMWHQLVQQAKEIGEVKVFACSTTMEFFGIKREDLAEFVDDVVGVATFLDRAEGGTTLFI | soluble
MGSDKIHHHHHHGASEVMWKDFRNEKTIDTVYLGSSFSQVTFNPYIIDEKLGWKSFNMGTPAQPLDQSYVALQNAIKEKKIKRAVLAYGIPTMEDTQNDNARITFAHAMKYGCSWKQKVKMDWDFITDKENINTESSINYLFPWISNSIEWTKTAIENNIKLKKHNNDATENMKTTEWYASYIGKGYAPILTGGFDYKNAITDNTKANYNCIISETAYCKLEKICRLCKDNEVEFIIVNTPKAPYDISMYGADEYFAINSRIEEICTKYGFSYYDFNLIKPQIFQICPEYLNNYEHLSKAGSEAFCNAFSNFIRLHDSGECMTNYFYNEEEYLDSVKDIVQCIKE | not soluble
LAKGLEDVYIDQTNICYIDGKEGKLYYRGYSVEELAELSTFEEVVYLLWWGKLPSLSELENFKKELAKSRGLPKEVIEIMEALPKNTHPMGALRTIISYLGNIDDSGDIPVTPEEVYRIGISVTAKIPTIVANWYRIKNGLEYVPPKEKLSHAANFLYMLHGEEPPKEWEKAMDVALILYAEHEINASTLAVMTVGSTLSDYYSAILAGIGALKGPIHGGAVEEAIKQFMEIGSPEKVEEWFFKALQQKRKIMGAGHRVYKTYDPRARIFKKYASKLGDKKLFEIAERLERLVEEYLSKKGISINVDYWSGLVFYGMKIPIELYTTIFAMGRIAGWTAHLAEYVSHNRIIRPRLQYVGEIGKKYLPIELRR | soluble
ESRLDRILESGVLRVATTGDYKPFSYRTEEGGYAGFDVDMAQRLAESLGAKLVVVPTSWPNLMRDFADDRFDIAMSGISINLERQRQAYFSIPYLRDGKTPITLCSEEARFQTLEQIDQPGVTAIVNPGGTNEKFARANLKKARILVHPDNVTIFQQIVDGKADLMMTDAIEARLQSRLHPELCAVHPQQPFDFAEKAYLLPRDEAFKRYVDQWLHIAEQSGLLRQ | not soluble
MGSDKIHHHHHHMISMDEFIEFVRGGPLGPIKKWGTKWSLWPVHLVTACCGAELAHAFACGYDGERIGALNYGIARQTNLIIVEGAITRKMAKVLRITWEQMPDPKFVIVMGACGLQGGIFWNGYHMVKPSDVVPVDFFIPGCPPTPEALLRGIRQLQFKIETGEAKTSATFPEVPLEAGRKPRVLPKSPKKISKAPAVIVNAPKEVDWEFGQKLVEEIKAKVEAKSVTITGKNRIAVKVESDYIPRAAMRLREMGFDHVKNVNVIDVPNEDKFIVEYHFSSYSVKELMPVIVNVFADIPRENPRVKSLASMFPSADYMEREMHDFFGVIFEGNPWMGRKFLLAPDAPEFPLRKDFKLEEEVYVR | not soluble

* * *

EXPERIMENT DESCRIPTION: soluble on expression in E. coli; label from the status in PepcDB or PDB records

SEQUENCE STRING | soluble on expression in E. coli
MSLSSILECIRTVGRGERGRKPLNFDQAFRVMDEYLNGECGDDQMAMLLMLIRVQNETQQEIAGFVKAFQSRMPAIGADIDWPCYAGKREAAGQPWHLLAAKILADNGHKVLMHGYHDRQPGRLHAEDYLDKFAIKKAESAEDAKRVLETQNIVYLPLSAFAPQAETMIGWKNRYGLRTPINTVVRALNPGQATVGIRGSFHPGFQQLHAEVEYEIGQTAHAVVSFKGQSGESEYNPKVSQTVWLSQPSGVTSHYWTEQMLSEVPMPTVCPFGTEETDMNQMANTVLTTIAVVLFAEMHDREQAFERAFSYWASYCAAEGHHHHHH | soluble
MSLTASYETIKARLDGTVLSATFNAPPMNLIGPEVVRDLVALLEELAHPTAPRVVIFDSADADFFFPHVDMTKVPEYTAEAAKAGGPGDASLGMLFRKLSQLPAVTIAKLRGRARGAGSEFLLACDMRFASRENAILGQPEVGIGAPPGAGAIQHLTRLLGRGRALEAVLTSSDFDADLAERYGWVNRAVPDAELDEFVAGIAARMSGFPRDALIAAKSAINAISLPAPAEVRADAALFQQLVRGEKVQQRTAELFKQGFQTRGATELDLGDALGHLKAVDEGHHHHHH | soluble

* * *

EXPERIMENT DESCRIPTION: soluble on expression in E. coli; label from the status in PepcDB or PDB records

SEQUENCE STRING | soluble on expression in E. coli
MISAGIDPGTGSYDVVAIEDGKVVFRKNIPTEEVRASPDVIVEVIEESGAEVAAGLSGYGLPVKRFSELDEVDLLLMTLNFDSERAIGLRNIIKAVKERNVNLYTVPAVIHLPTVPPWRKMNRIDIGTADKLCSAVLAVAKLSEEEELTKLNFILAEVGEGFNAFIAVRNGRIVDGMGGTTSFPGYSSLGAMDAELAYIIGEFPKKLIFSGGVKSFASEWKVNENEVTNILSEFVLKGIRAMEVSTDADFYMLSGRFAPDVLRKLRGEGKEVRLLGGFGRGKQSAQGAAIIANAIAGGEYREIVDYMRIFEAKGTLLDYITSDIMEYVRRGLKRRGD | not soluble
SSGSTVDSTTLCLFDVDGTLTAARQKATADMHEFLSKLKQRVKVGVVGGSDLDKIKEQLGDDVIDRVDYVFAENGLVAYRFGKLHSVQNIQAYLGEDILQEFINFCLNYLSKIKLPKKRGTFIEFRNGMLNVSPIGRSCSQQERIEFFELDKKEKIRETFVSVLKEEFAGKGLAFSIGGQISFDVFPEGWDKRYCLGIVEKDSYQHIHFFGDKTMPGGNDYEIFVDPRTIGHEVKSPEDTQRICRELFFS | soluble
MGSSHHHHHHSSENLYFQGHMSDLPRISVAAPRLDGNERDYVLECMDTTWISSVGRFIVEFEKAFADYCGVKHAIACNNGTTALHLALVAMGIGPGDEVIVPSLTYIASANSVTYCGATPVLVDNDPRTFNLDAAKLEALITPRTKAIMPVHLYGQICDMDPILEVARRHNLLVIEDAAEAVGATYRGKKSGSLGDCATFSFFGNKIITTGEGGMITTNDDDLAAKMRLLRGQGMDPNRRYWFPIVGFNYRMTNIQAAIGLAQLERVDEHLAARERVVGWYEQKLARLGNRVTKPHVALTGRHVFWMYTVRLGEGLSTTRDQVIKDLDALGIESRPVFHPMHIMPPYAHLATDDLKIAEACGVDGLNLPTHAGLTEADIDRVIAALDQVLV | soluble
GSHMRIPATIKKKMALPPATPVFTGEKKVEETKITAAIYDEKSVEFKELEVGELESVVRSALALNKKLWIDVVGVHDESLIAKICEFLGIHPLAAEDILNTAQRVKIEDYDDHLFLVLKILLYNETLEIDQLSLVLKKNLVATFEEREYWILDSIRSRLKSGGRMRKLAGDYLAYTILDAVVDSYFEALLKISDEIEVLEDEVVSGDSTLIGKIHSLKREILAFRNAVWPLRDVLSFFTRVEHELIGEEVKVYYRDVYDHAVRLME | soluble
MAISDWPEAERPREKLIEKGAAALSDAELLAIFLRTGITGVSAVELARKLLTHFGSLTKLCAASLHEFSELPGMGPAKFAQLQAVMEMAKRALAEELKNGDIMDSPQSVRNYLCLSLKGKPYEVFVGIFLDARHRTIVTEELFNGTLTQASVYPREVVKRALYHNAAAMIFAHNHPSGIAEPSTADEILTQSLKQALALVDVKVLDHFVIGSSEVVSFAERGLI | not soluble

* * *

EXPERIMENT DESCRIPTION: soluble on expression in E. coli; label from the status in PepcDB or PDB records
MEASURED PROPERTY: soluble on expression in E. coli

SEQUENCE STRING | MEASURED PROPERTY | RECORDED MEASUREMENT
MSEPILKVENLKKYFPVRRGFLSALRGEPQKFVKAVDGVSFEIYKQQVFALVGESGCGKTTTGKLIVKLLEPTDGKIYLEGQDVTELRTKEEIKAYRRKVQMIFQDPFSSMNPRFRIYDVLEEPLLIHGIGETRAEREELIYKALEMVKITPPEEYVGRFPHMLSGGQRQRVAIARALILNPTFVVADEPVSMLDVSIRAEILELMKELKEKMGVTYLYITHDLSTARYFADWIAVMYLGRIVEMGPAKEIIDNPLHPYTRALLAAVPEPIPERKDVIKELPIKGEVPSAVNIPSGCRFHPRCIYFKKGLCDVKQPQLIEYSHNHWVECHRVGEI | soluble on expression in E. coli | soluble
DVQINIRNNVYIPPCTINNGQNIVVDFGNINPEHVDNSRGEVTKTISISCPYKSGSLWIKVTGNTMGGGQNNVLATNITHFGIALYQGKGMSTPLTLGNGSGNGYRVTAGLDTARSTFTFTSVPFRNGSGILNGGDFRTTASMSMIYN | soluble on expression in E. coli | soluble
